Test: Dissociation constant (pKa) (determined in 30% EtOH)
Assay type: physicochemical
# cutoff 4 applies to pKa; >= gives t, < gives f

compound | assigned_class
O=C(O)COc1cc2c(c(Cl)c1Cl)C1=CC(=O)CCC1(C1CCCC1)C2 (configuration not stated) | f
CCC12CCC(=O)C=C1c1c(cc(OCC(=O)O)c(Cl)c1Cl)C2 (stereo in doubt; (-)-5b) | f
CCC12C=CC(=O)C=C1c1c(cc(OCC(=O)O)c(Cl)c1Cl)C2 (configuration not stated) | f
CCCC12CCC(=O)C=C1c1c(cc(OCC(=O)O)c(Cl)c1Cl)C2 (stereo in doubt; 5c) | f
CCCC12CC(=O)C=C1c1c(cc(OCC(=O)O)c(Cl)c1Cl)C2 (configuration not stated) | f
CCCC12CCC(=O)C=C1c1c(cc(SCC(=O)O)c(Cl)c1Cl)C2 (configuration not stated) | t
CCCC12CCC(=O)C=C1c1c(cc(O)c(Cl)c1Cl)C2 (single isomer, unassigned; (+)) | t

* * *

Assay: Dissociation constant (pKa) (determined in 30% EtOH)
Type: physicochemical
Entries and their pKa

compound | pKa
CCCC12CCC(C(C)=O)=C1c1c(cc(OCC(=O)O)c(Cl)c1Cl)C2 (centres undefined) | 4.1
CCCC12CCC(=O)C=C1c1c(cc(OCC(=O)OC(CC)(CC)C(=O)O)c(Cl)c1Cl)C2 (single isomer, unassigned; (+)) | 3.4
CCC12CCC(=O)C=C1c1c(cc(OCC(=O)OCc3cccnc3)c(Cl)c1Cl)C2 (centres undefined) | 3.32
CC12CCC(=O)C=C1c1c(cc(OCC(=O)O)c(Cl)c1Cl)C2 (centres undefined) | 3.75
CCCC12CCC(=O)C=C1c1c(cc(OCC(=O)NCCN(C)C)c(Cl)c1Cl)C2 (centres undefined) | 7.7
CCCC12CCC(=O)C=C1c1c(cc(OCCCC(=O)O)c(Cl)c1Cl)C2 (centres undefined) | 3.7
CCC12CCC(=O)C=C1c1c(cc(OCCCC(=O)O)c(Cl)c1Cl)C2 (centres undefined) | 3.7
CCCC12CCC(=O)C=C1c1c(cc(OCC(=O)OC(C)(C)C(=O)O)c(Cl)c1Cl)C2 (single isomer, unassigned; (+)) | 3.8
CCCC12CCC(=O)C=C1c1c(cc(OCC(=O)NN(C)C)c(Cl)c1Cl)C2 (centres undefined) | 3.9

* * *

Assay: % distribution in octanol versus pH7.4 buffer
Format: physicochemical
Details: pH 7.4
observation_type: Distribution (%)

molecule | observation_type | measure_unit | censoring_operator | value_observed
CCC12CCC(=O)C=C1c1c(cc(OCCCC(=O)O)c(Cl)c1Cl)C2 (centres undefined) | Distribution | % | = | 99.2
CCC12CCC(=O)C=C1c1c(cc(OCC(=O)OCC(C)=O)c(Cl)c1Cl)C2 (centres undefined) | Distribution | % | > | 99.9
C=CC12CCC(=O)C=C1c1c(cc(OCC(=O)O)c(Cl)c1Cl)C2 (centres undefined) | Distribution | % | = | 70
CCC12CCC(=O)C=C1c1c(cc(OCC(=O)OCC(=O)O)c(Cl)c1Cl)C2 (stereo in doubt; (+)-16b-8) | Distribution | % | = | 83
CCCC12CC(=O)C=C1c1c(cc(OCC(=O)O)c(Cl)c1Cl)C2 (centres undefined) | Distribution | % | = | 88
CCC12CCC(=O)C=C1c1c(cc(OCC(=O)OC)c(Cl)c1Cl)C2 (centres undefined) | Distribution | % | = | 99.5
CCCC12CCC(=O)C=C1c1c(cc(OCCCC(=O)O)c(Cl)c1Cl)C2 (centres undefined) | Distribution | % | = | 99.8
CCCCC12CCC(=O)C=C1c1c(cc(OCC(=O)O)c(Cl)c1Cl)C2 (centres undefined) | Distribution | % | = | 98
CCCC12CCC(=O)C=C1c1c(cc(OCC(=O)OC)c(Cl)c1Cl)C2 (centres undefined) | Distribution | % | > | 99.9
CCC12CCC(=O)C=C1c1c(cc(OCC(=O)OCCN3CCOCC3)c(Cl)c1Cl)C2 (centres undefined) | Distribution | % | = | 98.6
CCC12CCC(=O)C=C1c1c(cc(OCC(=O)OC(C)(C)C(=O)O)c(Cl)c1Cl)C2 (stereo in doubt; (+)-16b-9) | Distribution | % | = | 96
CCC12CCC(=O)C=C1c1c(cc(OCC(=O)OC(C)(C)C(=O)O)c(Cl)c1Cl)C2 (stereo in doubt; 16b-9) | Distribution | % | = | 95
CCCC12CCC(=O)C(C)=C1c1c(cc(OCC(=O)O)c(Cl)c1Cl)C2 (centres undefined) | Distribution | % | = | 98
CCCC12CCC(=O)C=C1c1c(cc(OCC(=O)O)c(C)c1C)C2 (centres undefined) | Distribution | % | = | 49
O=C(O)COc1cc2c(c(Cl)c1Cl)C1=CC(=O)CCC1(C1CCCC1)C2 (centres undefined) | Distribution | % | = | 97
CCCC12CCC(=O)C=C1c1c(cc(OCC(=O)OC(C)(C)C(=O)O)c(Cl)c1Cl)C2 (single isomer, unassigned; (+)) | Distribution | % | = | 98
CCC12CCC(=O)C=C1c1c(cc(OCC(=O)OCC3COC(C)(C)O3)c(Cl)c1Cl)C2 (centres undefined) | Distribution | % | = | 99.9
CCCC12CCC(=O)C=C1c1c(cc(OCC(=O)NN(C)C)c(Cl)c1Cl)C2 (centres undefined) | Distribution | % | = | 99.7
CCC12CCC(=O)C=C1c1c(cc(OCC(=O)OCC3CCC(CO)O3)c(Cl)c1Cl)C2 (centres undefined) | Distribution | % | = | 99.7

Sourced from ChEMBL document CHEMBL1123488
